experimentalSystem: Human HER3, endogenous, on human cancer cell lines (human, UniProt P21860 20-1342)
protocolText: cell-based or functional assay
Property: SK-Br-3 pAkt (S473) IC50; scope: individual binders
Enter your answer as a number in pM; do not include the unit.

A selection of reference data follows.
1. MOR09824 (antibody, human IgG1, kappa, V domains shown, tested as IgG) VH: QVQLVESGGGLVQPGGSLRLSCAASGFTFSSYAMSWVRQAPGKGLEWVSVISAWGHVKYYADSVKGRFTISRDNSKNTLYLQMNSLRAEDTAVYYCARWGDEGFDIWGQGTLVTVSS VL: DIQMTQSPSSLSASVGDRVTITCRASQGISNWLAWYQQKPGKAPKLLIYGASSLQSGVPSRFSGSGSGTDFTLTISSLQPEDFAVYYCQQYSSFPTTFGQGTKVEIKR = 62
2. MOR09825 (antibody, human IgG1, kappa, V domains shown, tested as IgG) VH: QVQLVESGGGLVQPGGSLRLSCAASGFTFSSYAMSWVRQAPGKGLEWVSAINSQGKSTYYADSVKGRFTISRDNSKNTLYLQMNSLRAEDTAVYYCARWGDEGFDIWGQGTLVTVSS VL: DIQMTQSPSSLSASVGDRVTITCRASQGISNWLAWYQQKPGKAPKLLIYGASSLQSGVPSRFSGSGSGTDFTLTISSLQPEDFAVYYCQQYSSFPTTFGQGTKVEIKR = 156
3. MOR09823 (antibody, human IgG1, kappa, V domains shown, tested as IgG) VH: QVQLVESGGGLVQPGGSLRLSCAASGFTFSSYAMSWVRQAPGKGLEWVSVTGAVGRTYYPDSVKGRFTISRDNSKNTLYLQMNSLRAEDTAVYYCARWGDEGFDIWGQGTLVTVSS VL: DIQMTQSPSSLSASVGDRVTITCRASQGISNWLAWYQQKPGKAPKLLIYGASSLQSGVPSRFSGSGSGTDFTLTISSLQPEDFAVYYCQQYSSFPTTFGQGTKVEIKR = 55

Now for another entry.
Query: Return the recorded SK-Br-3 pAkt (S473) IC50 value; entry: MOR09974 (antibody, human IgG1, kappa, V domains shown, tested as IgG) VH: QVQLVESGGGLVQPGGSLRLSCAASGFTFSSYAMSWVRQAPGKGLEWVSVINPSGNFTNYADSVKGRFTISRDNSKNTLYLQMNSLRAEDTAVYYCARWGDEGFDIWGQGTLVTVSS VL: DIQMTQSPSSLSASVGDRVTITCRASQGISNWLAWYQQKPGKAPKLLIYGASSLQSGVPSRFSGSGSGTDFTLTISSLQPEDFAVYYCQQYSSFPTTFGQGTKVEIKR
Response: 814

Data origin, for the record: patent US20130330324A1
